tested on: MCF7; assay: NCI tumour cell line growth inhibition, 48 h
The source made the active and inactive calls. Rule as the data show it: active = GI50 up to about 1.1 µM and inactive = higher. Where a SMILES comes first, the peptide text is derived from it. The star is where a group is joined. Boc = CC(C)(C)OC(=O)*
Labels: True = active, False = inactive

>>> df
                                   compound  group
0  COc1ccc(N(C)C(=O)N(C)c2ccc([N+](=O)[O-])cc2)cc1  False
1  COc1cc2ccc1OCc1cccc(n1)COc1ccc(cc1OC)/C=N\c1ccc(cc1)/N=C\2  False
2  CN(C)CCO/N=C1/C=C2CC[C@H]3[C@@H]4CC[C@H](O)[C@@]4(C)CC[C@@H]3[C@@]2(C)CC1  False
3  COC(=O)[C@H](Cc1ccc(O)cc1)NC(=O)[C@H](Cc1ccc(O)cc1)NC(=O)OC(C)(C)C (Boc-Tyr-Tyr-OMe)  False
4  C(=C\Nc1ccc(Oc2ccccc2)cc1)/C=N/c1ccc(Oc2ccccc2)cc1  False
5         N#C/N=[N+](\[O-])c1ccc(C(=O)O)cc1  False
6  Cc1cc(-c2nc3ccccc3s2)ccc1NC(=O)[C@@H](N)CCCCN   True
7  CC1=NN(c2cccc(Cl)c2)C2(C1)C(Cl)C(=O)N2c1nc2ccccc2s1 (centres undefined)  False
8  COC(=O)C1(C(=O)OC)N=C(C)OC1c1ccccc1O (centres undefined)  False

* * *

# reported GI50; entries follow
system: HCT-116; assay: NCI tumour cell line growth inhibition, 48 h
Activity calls are given as the source filed them. Rule as the data show it: active = GI50 up to about 1.1 µM and inactive = higher.
attribute_measured: GI50

In [3]: df
Out[3]:
                                    compound  experimental_system           data_value
 0  Nc1ccc(C23CC4CC(C2)CC(c2ccc(N)cc2)(C4)C3)cc1              HCT-116   44.3 µM (inactive)
 1  COC(=O)/C(=C/c1ccc(OC)cc1)C(C(=O)O)=C(C)C              HCT-116  > 100 µM (inactive)
 2  COc1ccc2c(c1)CCCN1Cc3ccccc3CC21 (stereo unspecified)              HCT-116   52.7 µM (inactive)
 3  COC(=O)c1ccccc1/C=C1\Cc2ccc3c(c2C1=O)CCCC3              HCT-116  > 100 µM (inactive)
 4  [N-]=[N+]=Nc1cc(=O)n(-c2ccccc2)c(=O)n1-c1ccccc1              HCT-116  > 100 µM (inactive)
 5  C=C1[C@@H](OC(C)=O)[C@H]2[C@@H](OC(C)=O)[C@@](C)(OC(C)=O)C[C@]2(OC(C)=O)C(=O)[C@@H](C)/C=C/C(C)(C)C(=O)C[C@H]1OC(C)=O              HCT-116  > 100 µM (inactive)
 6       Fc1ccc(NC(=S)SCc2ccc3c(c2)OCO3)cc1F              HCT-116   49.3 µM (inactive)
 7      CN(C)CCNc1ccc2nnn3c4ccccc4c(=O)c1c23              HCT-116   1.56 µM (inactive)
 8  CCCOC1OC(CS(=O)(=O)O)C(O)C(O)C1O (stereo unspecified)              HCT-116  > 100 µM (inactive)
 9  Cc1nc2n(c1/C=C1/C(=O)Nc3cccc(Cl)c31)CCS2              HCT-116   42.2 µM (inactive)
10                   O=CCOCc1cc2c(cc1Br)OCO2              HCT-116   21.6 µM (inactive)
